Tested on: MDR1
Assay: MDR1/MDCK assay (Example 4)
Assay type: in vitro ADME
Conditions: dog, MDCK-MDR1; (Papp B to A)/(Papp A to B)
Some compounds, each annotated with its measured efflux ratio at 120 min, 5 μM.
Just the number, please, no unit after it.

CC[C@@]1(c2ccccc2)C2=C(CC(C)(C)CC2=O)Nc2ncsc21 [drawing 182]    2.6

Now for another entry.
efflux ratio at 120 min, 5 μM recorded for this compound, CC1(C)CC(=O)C2=C(C1)Nc1ncsc1[C@]2(C)c1ccccc1 [drawing 181] , is 2.2

---

Target: GSK3β (Homo sapiens (Human), UniProt P49841)
Sequence (P49841 whole entry): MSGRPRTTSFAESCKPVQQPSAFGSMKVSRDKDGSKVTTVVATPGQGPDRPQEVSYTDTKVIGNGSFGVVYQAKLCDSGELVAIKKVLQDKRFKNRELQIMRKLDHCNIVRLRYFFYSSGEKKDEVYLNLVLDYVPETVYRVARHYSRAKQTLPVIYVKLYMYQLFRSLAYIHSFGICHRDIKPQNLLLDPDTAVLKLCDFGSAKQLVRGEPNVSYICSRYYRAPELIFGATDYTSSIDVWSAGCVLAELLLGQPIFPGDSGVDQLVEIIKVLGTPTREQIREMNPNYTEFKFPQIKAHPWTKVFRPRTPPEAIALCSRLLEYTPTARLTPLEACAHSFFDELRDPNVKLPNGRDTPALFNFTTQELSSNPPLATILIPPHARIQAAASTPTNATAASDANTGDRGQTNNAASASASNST
Assay: Mobility shift microfluidics assay
Assay type: biochemical
Details: 4.3 μM ATP, 60 minutes at room temperature
property_label: pIC50
Field pIC50 (float): negative decimal logarithm of the concentration in molar.

CC1(C)CC(=O)C2=C(C1)Nc1ncsc1[C@]2(C)c1ccccc1 [drawing 153]    6.42
CC[C@]1(c2ccccc2)C2=C(CC3(CCCCC3)CC2=O)Nc2ncsc21    5.72
CC[C@]1(c2cccc(OC)c2)C2=C(CC(C)(C)CC2=O)Nc2ncsc21    4.98
CC[C@@]1(c2ccccc2)C2=C(CC(C)(C)CC2=O)Nc2ncsc21 [drawing 157]    7.19
CC[C@@]1(c2cccc(F)c2)C2=C(CC(C)(C)CC2=O)Nc2ncsc21 [drawing 159]    5.64
CC[C@@]1(c2cccc(Cl)c2)C2=C(CC(C)(C)CC2=O)Nc2ncsc21 (single isomer, unassigned)    5.93

pIC50 recorded for this molecule, CC[C@@]1(c2ccccc2)C2=C(CC3(CCCCC3)CC2=O)Nc2ncsc21 , is 6.35

pIC50 recorded for this molecule, CC1(C)CC(=O)C2=C(C1)Nc1ncsc1[C@@]2(C)c1ccccc1 , is 4.54

pIC50 recorded for this molecule, CC[C@@]1(c2cccc(OC)c2)C2=C(CC(C)(C)CC2=O)Nc2ncsc21 (single isomer, unassigned) , is 6.96

---

System: MDR1
Assay: MDR1/MDCK assay (Example 4)
Type: in vitro ADME
Details: dog, MDCK-MDR1; 5 μM, pH 7.4, 120 minutes
Use T when the recorded Papp A→B at 120 min, 5 μM is no lower than 6 ×10⁻⁶ cm/s; use F when it is lower.

Threshold query (Papp A→B at 120 min, 5 μM >= 6 ×10⁻⁶ cm/s) on CC1(C)CC(=O)C2=C(C1)Nc1n[nH]cc1[C@]2(C)c1ccccc1 [drawing 183]
F

Threshold query (Papp A→B at 120 min, 5 μM >= 6 ×10⁻⁶ cm/s) on CC1(C)CC(=O)C2=C(C1)Nc1ncsc1[C@]2(C)c1ccccc1 [drawing 181]
T

Threshold query (Papp A→B at 120 min, 5 μM >= 6 ×10⁻⁶ cm/s) on CC[C@@]1(c2ccccc2)C2=C(CC(C)(C)CC2=O)Nc2n[nH]cc21 [drawing 184]
F

Threshold query (Papp A→B at 120 min, 5 μM >= 6 ×10⁻⁶ cm/s) on CC[C@@]1(c2ccccc2)C2=C(CC(C)(C)CC2=O)Nc2ncsc21 [drawing 182]
T

Threshold query (Papp A→B at 120 min, 5 μM >= 6 ×10⁻⁶ cm/s) on Cc1c[nH]c(-c2cnc(NCCNc3ccc(C#N)cn3)nc2-c2ccc(Cl)cc2Cl)n1 [drawing 185]
T
